// reported MIC Enterococcus avium (GC 4558) for each item listed
Test system: Enterococcus sp.
Assay: in vitro antibacterial evaluation, MIC by broth dilution
Format: cell-based
Conditions: strain GC 4558; broth dilution, 18 hours at 35° C.
Excerpt: Methods for in vitro Antibacterial Evaluation (Table 1) […]
Numbered stars: 1 amine (or outer) side, 2 acyl side, 3 side chain; on linkers, the order of the positions; unused ones are H or OH. Square brackets hold non-standard residues; d marks the D form. Peptide text beside a SMILES is read from it. ξ: configuration not given here. X1 = N=C1NCC(C(O)C(N[*:1])C(=O)[*:2])N1C1OC(CO)C(O)C(O)C1O; ξEnduracididine(βξ-OH,4'ξ) = N=C1NCC(C(O)C(N)C(=O)O)N1; Cha = N[CH](CC1CCCCC1)C(=O)O
# output: bare number, implied unit µg/mL

Some compounds with recorded MIC Enterococcus avium (GC 4558):
- Compound: "CC(c1ccccc1)C1NC(=O)CNC(=O)C(CO)NC(=O)C(C(O)C2CNC(=N)N2C2OC(CO)C(O)C(O)C2O)NC(=O)C(C(O)C2CNC(=N)N2)NC(=O)C(Cc2ccc(OC3OC(CO)C(OC4OC5COC(c6ccc(-c7cccs7)cc6)OC5C(O)C4O)C(O)C3O)cc2)NC1=O (stereo not shown)"
  Observed value: 4
- Compound: "CC(c1ccccc1)C1NC(=O)CNC(=O)C(CO)NC(=O)C(C(O)C2CNC(=N)N2C2OC(CO)C(O)C(O)C2O)NC(=O)C(C(O)C2CNC(=N)N2)NC(=O)C(Cc2ccc3oc(-c4ccc(Br)cc4)nc3c2)NC1=O (stereo not shown)"
  Observed value: 16
- Compound: "Cc1ccc(Oc2ccc(C3OCC4OC(OC5C(CO)OC(Oc6ccc(CC7NC(=O)C(C(C)c8ccccc8)NC(=O)CNC(=O)C(CO)NC(=O)C(C(O)C8CNC(=N)N8C8OC(CO)C(O)C(O)C8O)NC(=O)C(C(O)C8CNC(=N)N8)NC7=O)cc6)C(O)C5O)C(O)C(O)C4O3)cc2)cc1 (stereo not shown)"
  Observed value: 2

Ask: Find the recorded MIC Enterococcus avium (GC 4558) belonging to N=C1NCC(C(O)C2NC(=O)C(CC3CCCCC3)NC(=O)C(CC3CCCCC3)NC(=O)CNC(=O)C(CO)NC(=O)C(C(O)C3CNC(=N)N3C3OC(CO)C(O)C(O)C3O)NC2=O)N1 (stereo not drawn) [Example 52] (cyclo(G[Cha][Cha][ξEnduracididine(βξ-OH,4'ξ)][X1]S); configuration not given here) and report it.
Reply: 32

* * *

Test system: Streptococcus sp.
Assay: in vitro antibacterial evaluation, MIC by broth dilution
Format: cell-based
Conditions: broth dilution, 18 hours at 35° C.
From the text: Methods for in vitro Antibacterial Evaluation (Table 1) […]
// reported MIC Streptococcus pneumoniae (ATCC 6301) for each item listed
# output: bare number, implied unit µg/mL

Ask: Find the recorded MIC Streptococcus pneumoniae (ATCC 6301) belonging to CC(c1ccccc1)C1NC(=O)CNC(=O)C(CO)NC(=O)C(C(O)C2CN(Cc3ccccc3-c3ccccc3)C(=N)N2C2OC(CO)C(O)C(O)C2O)NC(=O)C(C(O)C2CNC(=N)N2)NC(=O)C(Cc2ccc(OC3OC(CO)C(OC4OC(CO)C(O)C(O)C4O)C(O)C3O)cc2)NC1=O (centres unmarked) [Example 65] and report it.
Reply: 128

Ask: Now this one: CC(c1ccccc1)C1NC(=O)CNC(=O)C(CO)NC(=O)C(CC2CNC(=N)N2C2OC(CO)C(O)C(O)C2O)NC(=O)C(CC2CNC(=N)N2)NC(=O)C(Cc2ccc(OC3OC(CO)C(OC4OC(CO)C(OCc5ccc(OCc6ccccc6)cc5)C(O)C4O)C(O)C3O)cc2)NC1=O (centres unmarked) [Example 246a]
Reply: 0.25

Ask: Now this one: CC(c1ccccc1)C1NC(=O)CNC(=O)C(CO)NC(=O)C(CC2CNC(=N)N2C2OC(CO)C(O)C(O)C2O)NC(=O)C(CC2CNC(=N)N2)NC(=O)C(Cc2ccc(OC3OC(CO)C(OC4OC(CO)C(O)C(OCc5ccc(OCc6ccccc6)cc5)C4O)C(O)C3O)cc2)NC1=O (centres unmarked) [Example 246b]
Reply: 32

Ask: Now this one: CC(c1ccccc1)C1NC(=O)CNC(=O)C(CO)NC(=O)C(C(O)C2CN(Cc3ccccc3)C(=NCc3ccccc3)N2C2OC(CO)C(O)C(O)C2O)NC(=O)C(C(O)C2CN(Cc3ccccc3)C(=NCc3ccccc3)N2Cc2ccccc2)NC(=O)C(Cc2ccc(OC3OC(CO)C(OC4OC(CO)C(O)C(O)C4O)C(O)C3O)cc2)NC1=O (centres unmarked) [Example 62]
Reply: 128
